# testedTarget: ACC2 (Homo sapiens (Human))
# Sequence (O00763 whole entry, species assumed): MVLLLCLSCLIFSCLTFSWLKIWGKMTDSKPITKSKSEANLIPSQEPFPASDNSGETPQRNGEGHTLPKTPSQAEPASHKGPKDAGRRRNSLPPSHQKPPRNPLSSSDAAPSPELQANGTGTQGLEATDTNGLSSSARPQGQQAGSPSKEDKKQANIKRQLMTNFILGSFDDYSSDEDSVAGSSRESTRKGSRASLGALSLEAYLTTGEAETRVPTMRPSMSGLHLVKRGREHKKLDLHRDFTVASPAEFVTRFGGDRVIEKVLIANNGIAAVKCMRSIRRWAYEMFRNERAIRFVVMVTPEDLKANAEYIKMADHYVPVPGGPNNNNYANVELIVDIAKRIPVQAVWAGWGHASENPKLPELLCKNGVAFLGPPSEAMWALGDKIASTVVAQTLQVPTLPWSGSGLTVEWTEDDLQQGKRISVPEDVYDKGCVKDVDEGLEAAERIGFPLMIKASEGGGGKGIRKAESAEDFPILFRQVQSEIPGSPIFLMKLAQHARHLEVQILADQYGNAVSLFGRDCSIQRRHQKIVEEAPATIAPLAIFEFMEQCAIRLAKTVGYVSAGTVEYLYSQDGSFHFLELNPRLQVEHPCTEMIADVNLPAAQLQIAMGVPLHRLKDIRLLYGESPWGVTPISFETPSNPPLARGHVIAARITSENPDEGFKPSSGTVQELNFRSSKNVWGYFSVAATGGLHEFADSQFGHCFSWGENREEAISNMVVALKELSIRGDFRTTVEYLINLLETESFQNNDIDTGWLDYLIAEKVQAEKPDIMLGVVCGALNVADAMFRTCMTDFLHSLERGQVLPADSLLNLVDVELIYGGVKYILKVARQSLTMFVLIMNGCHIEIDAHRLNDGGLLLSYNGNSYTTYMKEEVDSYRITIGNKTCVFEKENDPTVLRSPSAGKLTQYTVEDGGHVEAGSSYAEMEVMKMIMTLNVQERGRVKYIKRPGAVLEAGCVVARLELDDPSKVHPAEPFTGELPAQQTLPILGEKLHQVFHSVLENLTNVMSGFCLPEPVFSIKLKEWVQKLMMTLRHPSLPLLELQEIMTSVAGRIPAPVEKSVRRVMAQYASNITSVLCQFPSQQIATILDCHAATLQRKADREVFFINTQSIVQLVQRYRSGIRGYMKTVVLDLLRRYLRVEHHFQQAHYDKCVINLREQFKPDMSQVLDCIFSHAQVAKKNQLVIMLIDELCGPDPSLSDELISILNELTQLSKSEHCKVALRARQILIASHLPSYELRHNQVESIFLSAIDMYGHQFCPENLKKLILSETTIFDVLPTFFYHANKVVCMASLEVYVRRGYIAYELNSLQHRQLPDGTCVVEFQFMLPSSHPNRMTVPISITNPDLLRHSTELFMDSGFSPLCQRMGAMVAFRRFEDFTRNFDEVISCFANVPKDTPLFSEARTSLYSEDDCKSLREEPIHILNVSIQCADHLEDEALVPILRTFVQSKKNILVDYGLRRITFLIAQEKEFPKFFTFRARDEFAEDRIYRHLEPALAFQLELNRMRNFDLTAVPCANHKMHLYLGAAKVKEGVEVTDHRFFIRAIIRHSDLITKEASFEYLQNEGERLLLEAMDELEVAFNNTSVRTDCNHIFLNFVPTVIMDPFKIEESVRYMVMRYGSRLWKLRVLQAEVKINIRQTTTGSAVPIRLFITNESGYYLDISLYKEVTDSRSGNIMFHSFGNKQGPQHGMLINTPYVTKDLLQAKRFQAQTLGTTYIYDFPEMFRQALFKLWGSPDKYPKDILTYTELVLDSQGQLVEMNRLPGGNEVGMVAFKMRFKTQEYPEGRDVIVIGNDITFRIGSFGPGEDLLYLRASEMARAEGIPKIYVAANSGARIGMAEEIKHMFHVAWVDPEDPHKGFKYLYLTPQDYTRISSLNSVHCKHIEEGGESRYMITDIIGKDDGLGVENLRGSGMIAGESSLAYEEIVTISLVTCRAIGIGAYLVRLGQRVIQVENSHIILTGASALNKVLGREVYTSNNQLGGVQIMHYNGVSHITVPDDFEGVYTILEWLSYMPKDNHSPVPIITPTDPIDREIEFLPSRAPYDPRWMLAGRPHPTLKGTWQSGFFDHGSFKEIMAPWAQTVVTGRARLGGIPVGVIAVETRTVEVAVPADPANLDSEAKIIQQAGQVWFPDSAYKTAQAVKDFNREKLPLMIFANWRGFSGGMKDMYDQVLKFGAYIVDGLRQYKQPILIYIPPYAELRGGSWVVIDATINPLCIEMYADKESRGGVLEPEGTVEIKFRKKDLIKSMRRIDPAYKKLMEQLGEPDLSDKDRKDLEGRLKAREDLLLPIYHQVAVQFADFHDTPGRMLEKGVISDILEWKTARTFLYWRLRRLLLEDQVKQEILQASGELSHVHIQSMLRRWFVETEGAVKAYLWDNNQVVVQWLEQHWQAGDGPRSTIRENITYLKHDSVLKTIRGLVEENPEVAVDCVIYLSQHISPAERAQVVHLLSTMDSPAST
# testSummary: In vitro ACC inhibition assay (ADP-Glo), ACC2
# Assay type: biochemical
# conditionLabel: 5 nM ACC2, 20 μM ATP, 20 μM acetyl-CoA; read-out: IC50 (μM) ACC2
# Protocol: Compounds of the present invention were evaluated in an in vitro ACC inhibition assay as described by Harwood, et al, 2003, the entirety of which is incorporated herein by reference. In Vitro Acetyl-CoA Carboxylase (ACC) Inhibition Assay […] Data for each concentration, as well as the positive and negative controls were averaged, and the standard deviation calculated. […]
Below, each entry is listed alongside its reported IC50.
valueType: IC50

In [3]: df
Out[3]:
                                   molecule          result
0  CNC(=O)C1(n2c(=O)c3c(C)c(-c4ncco4)sc3n(CC(OC3CCOCC3)c3ccccc3OC)c2=O)CC1 (stereo not shown)  0.01 to 0.1 µM
1  COc1ccccc1C(Cn1c(=O)n(C2(C(N)=O)CCC2)c(=O)c2c(C)c(-c3ncco3)sc21)OC1CCOCC1 (stereo not shown)  0.01 to 0.1 µM
2  COc1ccccc1[C@H](Cn1c(=O)n(C(C)(C)C(=O)OC(C)(C)C)c(=O)c2c(C)c(Br)sc21)OC1CCOCC1     0.1 to 1 µM
3  COc1ccccc1C(Cn1c(=O)n(C2(C(N)=O)CCC2)c(=O)c2c(C)c(Br)sc21)OC1CCOCC1 (stereo not shown)  0.01 to 0.1 µM
4  COc1ccccc1[C@H](Cn1c(=O)n(C2(C(=O)O)CC2)c(=O)c2c(C)c(-n3cncn3)sc21)OC1CCOCC1     0.1 to 1 µM
5  CNC(=O)CC1(n2c(=O)c3c(C)c(-c4ncco4)sc3n(C[C@H](OC3CCOCC3)c3ccccc3OC)c2=O)CC1  0.01 to 0.1 µM
6  CNC(=O)C1(n2c(=O)c3cc(Br)sc3n(C[C@H](OC3CCOCC3)c3ccccc3OC)c2=O)CC1     0.1 to 1 µM
